Molecular target: T1, B-cat-Halo (beta-catenin HaloTag construct transfected into HEK293 cells) (UniProt P35222 1-781)
T1 sequence (looked up): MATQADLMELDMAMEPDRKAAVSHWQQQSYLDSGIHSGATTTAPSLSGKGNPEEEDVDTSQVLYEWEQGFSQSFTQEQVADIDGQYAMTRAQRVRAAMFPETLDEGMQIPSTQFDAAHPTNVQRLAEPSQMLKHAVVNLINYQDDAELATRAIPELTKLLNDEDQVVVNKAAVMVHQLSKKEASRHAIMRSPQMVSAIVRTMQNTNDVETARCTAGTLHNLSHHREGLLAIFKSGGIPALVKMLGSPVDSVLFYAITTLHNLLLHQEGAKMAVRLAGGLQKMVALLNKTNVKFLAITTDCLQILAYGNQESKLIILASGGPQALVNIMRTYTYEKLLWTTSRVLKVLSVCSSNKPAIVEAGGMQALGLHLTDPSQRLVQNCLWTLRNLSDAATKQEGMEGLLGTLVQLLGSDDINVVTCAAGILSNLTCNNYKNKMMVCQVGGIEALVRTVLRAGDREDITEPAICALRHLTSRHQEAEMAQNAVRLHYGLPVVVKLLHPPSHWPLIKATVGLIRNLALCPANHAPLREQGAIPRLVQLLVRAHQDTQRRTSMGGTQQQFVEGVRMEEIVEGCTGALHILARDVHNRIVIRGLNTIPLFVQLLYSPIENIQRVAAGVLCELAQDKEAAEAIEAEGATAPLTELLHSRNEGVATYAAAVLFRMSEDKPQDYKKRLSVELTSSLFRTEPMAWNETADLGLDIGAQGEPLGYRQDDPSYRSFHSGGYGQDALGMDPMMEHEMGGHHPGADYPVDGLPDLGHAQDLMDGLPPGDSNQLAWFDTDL
Assay: cell-based or functional assay
Starred links: 1 amine or outer side, 2 acyl side, 3 side chain; linkers in the order of their positions; H or OH if unused. Positions of bridges follow the written chain, without caps; N, C: chain ends. Non-standard residues stand in square brackets, D forms with d. Primed or numbered codes have the meaning given here. PyrS2″ = (S)-3-amino-1-((pent-4-en-1-yloxy)carbonyl)pyrrolidine-3-carboxylic acid (stapling residue), C=CCCCOC(=O)N1CC[C@@](N[*:1])(C(=O)[*:2])C1; (TfePpz)GlnR = (S)-2-amino-5-oxo-5-(4-(2,2,2-trifluoroethyl)piperazin-1-yl)pentanoic acid, O=C(CC[C@H](N[*:1])C(=O)[*:2])N1CCN(CC(F)(F)F)CC1; B5(4) = 2,2-bis(4-pentenyl)glycine = 2-amino-2-(pent-4-en-1-yl)hept-6-enoic acid (stitching residue), C=CCCCC(CCCC=C)(N[*:1])C(=O)[*:2]; TfeGA = (S)-2-amino-3-((carboxymethyl)(2,2,2-trifluoroethyl)amino)propanoic acid, O=C([C@H](CN(CC(=O)[*:3])CC(F)(F)F)N[*:1])[*:2]; B5(12) = 2-amino-2-(pent-4-en-1-yl)hept-6-enoic acid (two olefin side chains), C=CCCCC(CCCC=C)(N[*:1])C(=O)[*:2]; B5(19) = 2-amino-2-(pent-4-en-1-yl)hept-6-enoic acid (bis(4-pentenyl)glycine), C=CCCCC(CCCC=C)(N[*:1])C(=O)[*:2]; Phe(3-COOH) = N[C@@H](Cc1cccc(C(=O)O)c1)C(=O)O; Bta = N[C@@H](Cc1csc2ccccc12)C(=O)O; αAllylPro = C=CC[C@@]1(C(=O)O)CCCN1; tBuAla = CC(C)(C)C[C@H](N)C(=O)O; 3Thi = N[C@@H](Cc1ccsc1)C(=O)O; PyrS2(4) = not defined here; Nle = CCCC[C@H](N)C(=O)O
Reported endpoint: NanoBRET Abs IC50 (µM)
Write down the numeric answer in µM and omit the unit.

Ac-[αAllylPro]D[tBuAla][B5(4)]D[Phe(3-COOH)][Nle]AFL[PyrS2(4)][3Thi][Bta]A-NH2 (staple 1-4, 4-11; not fully specified; printed as Ac-PL3-Asp-Npg-B5-Asp-3COOHF-nLeu-Ala-Phe-Leu-PyrS2-3Thi-BztA-Ala-NH2; reading uncertain) [I-1919]: 4.7
Ac-[αAllylPro]D[tBuAla][B5(19)]D[TfeGA]AAF[(TfePpz)GlnR][PyrS2″][3Thi][Bta]Q-NH2 (staple 1-4, 4-11) [I-1935]: 7.1

Consider now this further binder.
Enquiry: What NanoBRET Abs IC50 value was documented for this binder, Ac-[αAllylPro]D[tBuAla][B5(12)]D[Phe(3-COOH)][Nle]AFL[PyrS2(4)][3Thi][Bta]F-NH2 (staple 1-4, 4-11; not fully specified; printed as Ac-PL3-Asp-Npg-B5-Asp-3COOHF-nLeu-Ala-Phe-Leu-PyrS2-3Thi-BztA-Phe-NH2; reading uncertain) [I-1913] ?
Return: 17.5

Origin of the recorded values: patent US20240116985A1
